- assay_remarks: tubulin staining increase by stabilizing compounds – imaging, high-content imaging, primary screen (AID 2205)
- run_parameters: HeLa tubulin immunostaining HCS, 24 h, at 10 µM; measured here: nuclear condensation Hoechst responders, stronger effect = higher value, share of cells brighter than vehicle mean+2SD
Screen size: about 200,000 compounds; about 1,600 (0.8%) were called active. Shown is part of a subset that was picked to be rich in actives.
Parameter: % Hoechst-high responders. Scope: all listed entries.
Give just the numeric value; % need not be written.

structure: COc1cccc(CN(C)CC(=O)Nc2sc3c(c2C#N)CCC3)c1
uom: %
measured: 1.26
//
structure: CCCCOc1ccc(NC(=O)[C@@H]2CCCN2C(=O)C2CCN(S(=O)(=O)c3ccc(C)cc3)CC2)cc1
uom: %
measured: 12
//
structure: O=C(Nc1ccn(Cc2ccc(F)cc2)n1)c1ccncc1
uom: %
measured: 1.77

QUERY: Supply recorded % Hoechst-high responders for CCc1cc2cc(OC)ccc2nc1SCC(=O)Nc1cc(OC)c(OC)cc1C(=O)O here.
RESULT: 1.91

QUERY: Supply recorded % Hoechst-high responders for Cc1cccc(OCCCC(=O)Nc2ccc(S(=O)(=O)N3CCCC3)cc2)c1 here.
RESULT: 2.42
